- STUDY_SYSTEM: Cathepsin D (Cat D) (Homo sapiens, UniProt P07339)
- Construct: Recombinant Cat D was expressed in CHO cells; made in house; host or cells: CHO cells
- Sequence (P07339 65-412, species assumed): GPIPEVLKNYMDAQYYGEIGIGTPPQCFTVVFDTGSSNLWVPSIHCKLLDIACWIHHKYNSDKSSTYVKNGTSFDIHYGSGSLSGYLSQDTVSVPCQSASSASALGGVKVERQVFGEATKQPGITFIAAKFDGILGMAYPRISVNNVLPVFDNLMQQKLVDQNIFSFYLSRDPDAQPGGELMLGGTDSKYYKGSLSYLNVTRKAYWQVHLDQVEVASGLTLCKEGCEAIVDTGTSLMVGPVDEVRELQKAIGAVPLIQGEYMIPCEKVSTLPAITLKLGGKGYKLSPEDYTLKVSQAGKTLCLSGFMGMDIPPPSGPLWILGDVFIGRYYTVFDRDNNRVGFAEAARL
- METHOD_SUMMARY: In vitro enzymatic Cathepsin D (Cat D) FRET assay
- Assay type: biochemical
- ASSAY_CONDITIONS: read-out: CatD IC50
REPORTED_METRIC: log10(IC50) (log10 of the value in µM)

# COMPOUND, log10(IC50)
data = [
    ("CC1(C)C(N)=N[C@](C)(c2cc(Oc3cc(-c4ccc(C(F)(F)F)cc4)ccn3)ccc2F)CS1(=O)=O", 1.70),
    ("Cc1cc(OC(F)F)cnc1C(=O)Nc1ccc(F)c([C@@]2(C)N=C(N)C(C)(C)S(=O)(=O)C2F)c1 (stereo partly drawn)", 2.13),
    ("COc1cc(Cl)cnc1C(=O)Nc1ccc(F)c([C@@]2(C)N=C(N)C3(CCC3)S(=O)(=O)[C@@H]2F)c1", 2.61),
    ("Cc1cc(OC2COC2)cnc1C(=O)Nc1ccc(F)c([C@]2(CF)CS(=O)(=O)C(C)(C)C(N)=N2)c1", 2.79),
    ("C[C@@]1(c2cc(Nc3nccc4cc(Cl)cnc34)cnc2F)CS(=O)(=O)C2(CCC2)C(N)=N1", 1.37),
    ("CC1(C)C(N)=N[C@](C)(c2cc(Nc3nccc4cc(Cl)cnc34)cnc2F)CS1(=O)=O", 1.38),
    ("COc1cnc2c(Nc3ccc(F)c([C@@]45COC[C@@H]4S(=O)(=O)C(C)(C)C(N)=N5)c3)nccc2n1", 2.68),
    ("C[C@]1(F)C(N)=N[C@](C)(c2cc(NC(=O)c3cnc(C(F)(F)F)cn3)ccc2F)CS1(=O)=O", 2.97),
    ("Cc1cc(OC(F)F)cnc1C(=O)Nc1ccc(F)c([C@]2(CF)CS(=O)(=O)C(C)(C)C(N)=N2)c1", 2.33),
    ("CC1(C)C(N)=N[C@](C)(c2cc(NC(=O)c3ccc(Cl)cn3)ccc2F)CS1(=O)=O", 2.38),
    ("Cc1cc(C#N)cnc1Oc1ccc(F)c([C@]2(C)CS(=O)(=O)C(C)(C)C(N)=N2)c1", 2.73),
    ("Cc1nc2c(Nc3ccc(F)c([C@]4(C)CS(=O)(=O)C(C)(C)C(N)=N4)c3)cccc2s1", 2.16),
    ("COc1cnc2c(Nc3ccc(F)c([C@]4(C)CS(=O)(=O)CC(N)=N4)c3)nccc2c1", 1.84),
    ("CC1(C)C(N)=N[C@](C)(c2cc(Nc3ncc(Cl)c4cc(Cl)cnc34)ccc2F)CS1(=O)=O", 1.51),
    ("COc1cc(C)ccc1Oc1ccc(F)c([C@]2(C)CS(=O)(=O)C(C)(C)C(N)=N2)c1", 2.26),
    ("CC1(C)C(N)=N[C@](C)(c2cc(NC(=O)c3cnc(C(F)F)cn3)ccc2F)CS1(=O)=O", 2.95),
    ("CC1(C)C(N)=N[C@@]2(c3cc(Nc4nccc5cc(Cl)cnc45)ccc3F)C[C@H]2S1(=O)=O", 1.94),
    ("CC1(C)C(N)=N[C@@](C)(c2cc(Nc3noc4cc(Cl)cnc34)ccc2F)CS1(=O)=O", 1.66),
    ("COc1cnc2c(Nc3ccc(F)c([C@]4(C)CS(=O)(=O)C(C)(C)C(N)=N4)c3)cccc2n1", 1.68),
    ("CC1(C)C(N)=N[C@](CF)(c2cc(Nc3ncnc4cc(Cl)cnc34)ccc2F)CS1(=O)=O", 1.83),
    ("Cc1cc(Oc2ccc(F)c([C@]3(C)CS(=O)(=O)C(C)(C)C(N)=N3)c2)ncc1Cl", 2.62),
    ("CC1(C)C(N)=N[C@](C)(c2cc(Oc3nccc4nc(C(F)(F)F)cnc34)ccc2F)CS1(=O)=O", 3.15),
    ("CC1(C)C(N)=N[C@](C)(c2cc(Nc3nccc4cc(Cl)cnc34)ccc2F)CS1(=O)=O", 1.96),
    ("Cc1c(CNc2ccc(F)c([C@]3(C)CS(=O)(=O)C(C)(C)C(N)=N3)c2)nc2ccc(Cl)cn12", 3.16),
]
